src = the NIST ThermoML archive (doi:10.1021/je0499364)

- assay.info: molar heat capacity at constant pressure
- experimental.parameters: 320 K; 101.33 kPa; Liquid
endpoint.label: molar heat capacity at constant pressure (J/K/mol)

* CCCCCCCCCCCCCCC(=O)OC [methyl pentadecanoate] | 539.26
* CCCCCCCCCCCCCCCC(=O)OC [methyl hexadecanoate] | 576.47
* CCCCCCCCCCCC(=O)OC [methyl dodecanoate] | 448.38

a: CCCCCCCCC(=O)OC [methyl nonanoate]
b: CCCCCCCCCCCCCCCCCCC(=O)OC [methyl nonadecanoate]
I would appreciate it if you could say which entry, a or b , has the lower molar heat capacity at constant pressure value. Identify your selection by its label.
a
